- EXPERIMENTAL_DETAILS: A1 inhibitors via caspase activation, primary screen, cell-based, luminescence, HTS, two replicates (AID 2465)
- CONDITION_NOTES: MEF A1-2A-BIM cells, caspase-Glo luminescence, 3 h; hits give high values; percent of clofoctol response, DMSO zero; concentration not given here
The campaign covered roughly 24,000 compounds. Fewer than 10 were called active. A selection follows.
METRIC_NAME: caspase activation

Here are 5 compounds together with their reported answers.
CHEM_SMILES: Cc1ccc(S(=O)(=O)N(C)C[C@@H]2Oc3ccc(NC(=O)NC4CCCCC4)cc3C(=O)N([C@@H](C)CO)C[C@H]2C)cc1
RESULT: -0.781% (inactive)

CHEM_SMILES: C[C@H]1CCCCO[C@H](CN(C)CC2CC2)[C@@H](C)CN([C@@H](C)CO)C(=O)c2cc(NC(=O)CCC(F)(F)F)ccc2O1
RESULT: -0.204% (inactive)

CHEM_SMILES: Cc1noc(C)c1NC(=O)Nc1ccc2c(c1)C(=O)N([C@@H](C)CO)C[C@@H](C)[C@H](CN(C)C(=O)NC(C)C)O2
RESULT: 0.213% (inactive)

CHEM_SMILES: C[C@@H]1CN([C@H](C)CO)C(=O)c2cc(NC(=O)Cn3cnnn3)ccc2O[C@@H]1CN(C)C(=O)Nc1ccc2c(c1)OCO2
RESULT: -0.00909% (inactive)

CHEM_SMILES: C[C@@H]1CN([C@@H](C)CO)C(=O)c2cc(NC(=O)Nc3ccccc3)ccc2O[C@@H]1CN(C)Cc1ccccc1
RESULT: -0.201% (inactive)

Problem: # query: caspase activation of entry C[C@H](CO)N1C[C@H](C)[C@@H](CN(C)Cc2ccc(-c3ccccc3)cc2)Oc2ccc(NC(=O)CCCN(C)C)cc2CC1=O
Result: 0.389% (inactive)

Problem: Endpoint output: caspase activation of CC(C)NC(=O)N(C)C[C@H]1OCCCC[C@H](C)Oc2ccc(NS(=O)(=O)c3cccs3)cc2C(=O)N([C@H](C)CO)C[C@@H]1C . Value?
Result: 1.03% (inactive)

====

A collection of compounds and their measured caspase activation
- EXPERIMENTAL_DETAILS: A1 inhibitors via caspase activation, primary screen, cell-based, luminescence, HTS, two replicates (AID 2465)
- CONDITION_NOTES: MEF A1-2A-BIM cells, caspase-Glo luminescence, 3 h; hits give high values; percent of clofoctol response, DMSO zero; concentration not given here
Out of some 24,000 compounds screened, fewer than 10 were called active. The list is a sample of the results.
Give the value, in units of %, as a plain number.

CHEM_SMILES: COc1ccc(S(=O)(=O)Nc2ccc3c(c2)CC(=O)N([C@@H](C)CO)C[C@H](C)[C@@H](CN(C)Cc2ccc(C(=O)O)cc2)O3)cc1
caspase activation, %: 1
--
CHEM_SMILES: C[C@H]1CCCCO[C@@H](CN(C)C(=O)Nc2ccccc2)[C@@H](C)CN([C@@H](C)CO)C(=O)c2cc(NC(=O)Nc3ccc(F)cc3)ccc2O1
caspase activation, %: -0.917
--
CHEM_SMILES: Cc1cccc(S(=O)(=O)N(C)C[C@H]2OCc3cnnn3CCCC(=O)N([C@@H](C)CO)C[C@H]2C)c1
caspase activation, %: -0.906
--
CHEM_SMILES: C[C@H](CO)N1C[C@H](C)[C@@H](CN(C)Cc2ccc(C(=O)O)cc2)Oc2ccc(NS(=O)(=O)c3cn(C)cn3)cc2CC1=O
caspase activation, %: -0.273
--
CHEM_SMILES: C[C@@H]1CCCCO[C@@H](CN(C)C(=O)NC2CCCCC2)[C@H](C)CN([C@H](C)CO)C(=O)c2cc(NC(=O)c3ccccc3)ccc2O1
caspase activation, %: 0.223
--
CHEM_SMILES: C[C@H]1CN([C@@H](C)CO)C(=O)Cc2cc(NC(=O)Cn3cnnn3)ccc2O[C@H]1CN(C)CC1CC1
caspase activation, %: -0.754
--
CHEM_SMILES: Cc1ccccc1CN(C)C[C@H]1OCc2cn(nn2)CCCC(=O)N([C@@H](C)CO)C[C@H]1C
caspase activation, %: -0.00464
--
CHEM_SMILES: C[C@H]1CN([C@@H](C)CO)C(=O)c2cccc(NS(=O)(=O)c3ccc(Cl)cc3)c2O[C@H]1CN(C)S(=O)(=O)c1ccc(Cl)cc1
caspase activation, %: -1.18

Problem: Which caspase activation value belongs to COc1ccc(NC(=O)N(C)C[C@@H]2Oc3ccc(NS(=O)(=O)c4ccc(Cl)cc4)cc3C(=O)N([C@H](C)CO)C[C@@H]2C)cc1 ?
Result: 0.258

Problem: Entry C[C@H](CO)N1C[C@H](C)[C@H](CN(C)Cc2ccc(C(=O)O)cc2)Oc2ccc(NS(=O)(=O)c3cn(C)cn3)cc2CC1=O : reported caspase activation = ?
Result: -0.00308

Problem: caspase activation lookup needed for C[C@@H]1CN([C@@H](C)CO)C(=O)c2cc(NC(=O)Nc3ccc(C(F)(F)F)cc3)ccc2O[C@@H](C)CCCCO[C@H]1CN(C)C(=O)CCCN(C)C , thanks.
Result: 0.263

====

- EXPERIMENTAL_DETAILS: A1 inhibitors via caspase activation, primary screen, cell-based, luminescence, HTS, two replicates (AID 2465)
- CONDITION_NOTES: MEF A1-2A-BIM cells, caspase-Glo luminescence, 3 h; hits give high values; percent of clofoctol response, DMSO zero; concentration not given here
Hit rate of the full screen: of about 24,000 compounds, fewer than 10 were called active. A selection follows.
METRIC_NAME: caspase activation (%)
State just the number; it will be interpreted in %.

Worked cases, caspase activation given:
CHEM_SMILES: CC(C)NC(=O)Nc1ccc2c(c1)C(=O)N([C@H](C)CO)C[C@H](C)[C@@H](CN(C)S(=O)(=O)c1ccc(F)cc1)OCCCC[C@H](C)O2
caspase activation / %: 1.08
//
CHEM_SMILES: COc1ccc(NC(=O)N(C)C[C@H]2OCCCC[C@@H](C)Oc3ccc(NC(=O)NC4CCCCC4)cc3C(=O)N([C@@H](C)CO)C[C@H]2C)cc1
caspase activation / %: 0.476
//
CHEM_SMILES: COc1ccc(S(=O)(=O)Nc2ccc3c(c2)C(=O)N([C@@H](C)CO)C[C@@H](C)[C@H](CN(C)Cc2ccc(C(F)(F)F)cc2)OCCCC[C@@H](C)O3)cc1
caspase activation / %: -1.2
//
CHEM_SMILES: COc1ccc(NC(=O)N(C)C[C@H]2OCCCC[C@@H](C)Oc3ccc(NS(=O)(=O)c4ccc(F)cc4)cc3C(=O)N([C@@H](C)CO)C[C@@H]2C)cc1
caspase activation / %: -0.991
//
CHEM_SMILES: COc1cc(OC)c(/C=N/NC(=O)CCCCCCC(=O)Nc2ccccc2O)c(OC)c1
caspase activation / %: -0.41

Problem: Given the molecule Cc1ccc(S(=O)(=O)Nc2ccc3c(c2)C(=O)N([C@H](C)CO)C[C@H](C)[C@H](CN(C)C(=O)Nc2ccc4c(c2)OCO4)OCCCC[C@@H](C)O3)cc1 , what is its reported caspase activation?
Result: -0.5

====

- EXPERIMENTAL_DETAILS: A1 inhibitors via caspase activation, primary screen, cell-based, luminescence, HTS, two replicates (AID 2465)
- CONDITION_NOTES: MEF A1-2A-BIM cells, caspase-Glo luminescence, 3 h; hits give high values; percent of clofoctol response, DMSO zero; concentration not given here
The whole screen tested about 24,000 compounds, of which fewer than 10 were called active. Only a sample is shown.
METRIC_NAME: caspase activation (%)
State the answer as a number, implicitly in %.

Problem: Request the reported caspase activation associated with COc1ccc(S(=O)(=O)N(C)C[C@@H]2Oc3ccc(NC(=O)C4CC4)cc3CC(=O)N([C@@H](C)CO)C[C@H]2C)cc1
Result: -0.0568

Problem: Fill in the blank: the reported caspase activation of C[C@@H]1CCCCO[C@H](CN(C)Cc2ccccc2)[C@H](C)CN([C@@H](C)CO)C(=O)c2cc(NC(=O)Nc3cccc4ccccc34)ccc2O1 is ____.
Result: -0.203

Problem: Give the measured caspase activation of C[C@H](CO)N1C[C@H](C)[C@@H](CN(C)Cc2ccncc2)Oc2ccc(NS(=O)(=O)c3ccc(Cl)cc3)cc2CC1=O .
Result: -1.19

Problem: Which caspase activation reading was recorded for the compound CC(C)NC(=O)N(C)C[C@@H]1Oc2ccc(NC(=O)Cn3cnnn3)cc2CC(=O)N([C@H](C)CO)C[C@H]1C ?
Result: 1.87

====

Overview of reported caspase activation across a group of molecules:
- EXPERIMENTAL_DETAILS: A1 inhibitors via caspase activation, primary screen, cell-based, luminescence, HTS, two replicates (AID 2465)
- CONDITION_NOTES: MEF A1-2A-BIM cells, caspase-Glo luminescence, 3 h; hits give high values; percent of clofoctol response, DMSO zero; concentration not given here
The campaign covered roughly 24,000 compounds. Fewer than 10 were called active. Not all results are given here.

Problem: Query: caspase activation; subject: C[C@H](O)[C@H](O)[C@@H](O)[C@@H](O)/C=N/NC(=O)CCCCCC(=O)Nc1ccccc1O
Result: 0.323% (inactive)

Problem: Tell me the measured caspase activation of Cc1ccc(S(=O)(=O)N(C)C[C@H]2OCCCC[C@@H](C)Oc3ccc(NC(=O)NC4CCCCC4)cc3C(=O)N([C@H](C)CO)C[C@@H]2C)cc1 , please.
Result: -0.124% (inactive)

Problem: Which caspase activation value belongs to C[C@H](CO)N1C[C@H](C)[C@@H](CN(C)C(=O)Nc2ccc(F)cc2)OCCCC[C@H](C)Oc2ccc(NC(=O)c3ccncc3)cc2C1=O ?
Result: 0.454% (inactive)
